# System: Bacillus subtilis NBIMCC 3562
# Assay type: cell-based
# test.parameters: broth dilution, 0 to 320 µg/mL, 24 h; NI = no inhibition monitored
Non-standard residues stand in square brackets, D forms with d. Residues, ends and D or L forms follow the SMILES beside them. Orn = NCCC[C@H](N)C(=O)O; Dap = NC[C@H](N)C(=O)O
# maps each entry to its MIC, B. subtilis 3562
Use µg/mL as the unit, but write only the number.

Worked examples follow.
INSERT INTO measurements (molecule, reported_property, meas_value) VALUES
  ('CC[C@H](C)[C@H](NC(=O)CNC(=O)[C@H](CO)NC(=O)[C@H](CC(C)C)NC(=O)[C@@H](NC(=O)[C@H](CCCN)NC(=O)CNC(=O)[C@@H](NC(=O)[C@H](CC(C)C)NC(=O)[C@@H]1CCCN1C(=O)[C@H](CC(C)C)NC(=O)[C@@H](N)Cc1ccccc1)[C@@H](C)CC)C(C)C)C(=O)N[C@@H](CC(C)C)C(N)=O [DTOrn, FLPLIG-Orn-VLSGIL-NH2] (H-FLPLIG[Orn]VLSGIL-NH2; N-terminus assumed)', 'MIC, B. subtilis 3562', 160),
  ('CC[C@H](C)[C@H](NC(=O)CNC(=O)[C@H](CO)NC(=O)[C@H](CC(C)C)NC(=O)[C@@H](NC(=O)[C@H](CCCCN)NC(=O)CNC(=O)[C@@H](NC(=O)[C@H](CC(C)C)NC(=O)[C@@H]1CCCN1C(=O)[C@H](CC(C)C)NC(=O)[C@@H](N)Cc1ccccc1)[C@@H](C)CC)C(C)C)C(=O)N[C@@H](CC(C)C)C(N)=O [DTF, FLPLIG-K-VLSGIL-NH2, reference compound] (H-FLPLIGKVLSGIL-NH2)', 'MIC, B. subtilis 3562', 80);

input: Output measured MIC, B. subtilis 3562 for this item: CC[C@H](C)[C@H](NC(=O)CNC(=O)[C@H](CO)NC(=O)[C@H](CC(C)C)NC(=O)[C@@H](NC(=O)[C@H](CN)NC(=O)CNC(=O)[C@@H](NC(=O)[C@H](CC(C)C)NC(=O)[C@@H]1CCCN1C(=O)[C@H](CC(C)C)NC(=O)[C@@H](N)Cc1ccccc1)[C@@H](C)CC)C(C)C)C(=O)N[C@@H](CC(C)C)C(N)=O [DTDap, FLPLIG-Dap-VLSGIL-NH2] (H-FLPLIG[Dap]VLSGIL-NH2; N-terminus assumed)
output: 320

---

# Test system: BALB 3T3 clone A31 cells
# assay.info: 3T3 NRU cytotoxicity/phototoxicity test
# Format: cell-based, mouse
# test.parameters: PIF = CC50 −Irr/CC50 +Irr; PIF < 2 = not phototoxic
Non-standard residues stand in square brackets, D forms with d. Residues, ends and D or L forms follow the SMILES beside them. Cit = NC(=O)NCCC[C@H](N)C(=O)O; Orn = NCCC[C@H](N)C(=O)O; Dab = NCC[C@H](N)C(=O)O; Dap = NC[C@H](N)C(=O)O
reported.property: PIF (photo irritation factor)
Form rule: numeric answer, no unit written next to it.

INSERT INTO measurements (compound, reported_property, meas_value) VALUES
  ('CC[C@H](C)[C@H](NC(=O)CNC(=O)[C@H](CO)NC(=O)[C@H](CC(C)C)NC(=O)[C@@H](NC(=O)[C@H](CCN)NC(=O)CNC(=O)[C@@H](NC(=O)[C@H](CC(C)C)NC(=O)[C@@H]1CCCN1C(=O)[C@H](CC(C)C)NC(=O)[C@@H](N)Cc1ccccc1)[C@@H](C)CC)C(C)C)C(=O)N[C@@H](CC(C)C)C(N)=O [DTDab, FLPLIG-Dab-VLSGIL-NH2] (H-FLPLIG[Dab]VLSGIL-NH2; N-terminus assumed)', 'PIF (photo irritation factor)', 1.01),
  ('CC[C@H](C)[C@H](NC(=O)CNC(=O)[C@H](CO)NC(=O)[C@H](CC(C)C)NC(=O)[C@@H](NC(=O)[C@H](CCCNC(N)=O)NC(=O)CNC(=O)[C@@H](NC(=O)[C@H](CC(C)C)NC(=O)[C@@H]1CCCN1C(=O)[C@H](CC(C)C)NC(=O)[C@@H](N)Cc1ccccc1)[C@@H](C)CC)C(C)C)C(=O)N[C@@H](CC(C)C)C(N)=O [DTCit, FLPLIG-Cit-VLSGIL-NH2] (H-FLPLIG[Cit]VLSGIL-NH2; N-terminus assumed)', 'PIF (photo irritation factor)', 1.07);

input: Output measured PIF (photo irritation factor) for this item: CC[C@H](C)[C@H](NC(=O)CNC(=O)[C@H](CO)NC(=O)[C@H](CC(C)C)NC(=O)[C@@H](NC(=O)[C@H](CCCCN)NC(=O)CNC(=O)[C@@H](NC(=O)[C@H](CC(C)C)NC(=O)[C@@H]1CCCN1C(=O)[C@H](CC(C)C)NC(=O)[C@@H](N)Cc1ccccc1)[C@@H](C)CC)C(C)C)C(=O)N[C@@H](CC(C)C)C(N)=O [DTF, FLPLIG-K-VLSGIL-NH2, reference compound] (H-FLPLIGKVLSGIL-NH2)
output: 1.05

input: Output measured PIF (photo irritation factor) for this item: CC[C@H](C)[C@H](NC(=O)CNC(=O)[C@H](CO)NC(=O)[C@H](CC(C)C)NC(=O)[C@@H](NC(=O)[C@H](CCCN)NC(=O)CNC(=O)[C@@H](NC(=O)[C@H](CC(C)C)NC(=O)[C@@H]1CCCN1C(=O)[C@H](CC(C)C)NC(=O)[C@@H](N)Cc1ccccc1)[C@@H](C)CC)C(C)C)C(=O)N[C@@H](CC(C)C)C(N)=O [DTOrn, FLPLIG-Orn-VLSGIL-NH2] (H-FLPLIG[Orn]VLSGIL-NH2; N-terminus assumed)
output: 0.98

input: Output measured PIF (photo irritation factor) for this item: CC[C@H](C)[C@H](NC(=O)CNC(=O)[C@H](CO)NC(=O)[C@H](CC(C)C)NC(=O)[C@@H](NC(=O)[C@H](CN)NC(=O)CNC(=O)[C@@H](NC(=O)[C@H](CC(C)C)NC(=O)[C@@H]1CCCN1C(=O)[C@H](CC(C)C)NC(=O)[C@@H](N)Cc1ccccc1)[C@@H](C)CC)C(C)C)C(=O)N[C@@H](CC(C)C)C(N)=O [DTDap, FLPLIG-Dap-VLSGIL-NH2] (H-FLPLIG[Dap]VLSGIL-NH2; N-terminus assumed)
output: 0.99

---

# Test system: Pseudomonas aeruginosa NBIMCC 3700
# Assay type: cell-based
# test.parameters: peptide 1.4 mg/mL, 20 µL per disc, 24 h
Non-standard residues stand in square brackets, D forms with d. Residues, ends and D or L forms follow the SMILES beside them. Cit = NC(=O)NCCC[C@H](N)C(=O)O; Orn = NCCC[C@H](N)C(=O)O; Dap = NC[C@H](N)C(=O)O
# maps each entry to its Inhibition zone, P. aeruginosa 3700
Use mm as the unit, but write only the number.

Worked examples follow.
INSERT INTO measurements (compound, meas_value) VALUES
  ('CC[C@H](C)[C@H](NC(=O)CNC(=O)[C@H](CO)NC(=O)[C@H](CC(C)C)NC(=O)[C@@H](NC(=O)[C@H](CCCN)NC(=O)CNC(=O)[C@@H](NC(=O)[C@H](CC(C)C)NC(=O)[C@@H]1CCCN1C(=O)[C@H](CC(C)C)NC(=O)[C@@H](N)Cc1ccccc1)[C@@H](C)CC)C(C)C)C(=O)N[C@@H](CC(C)C)C(N)=O [DTOrn, FLPLIG-Orn-VLSGIL-NH2] (H-FLPLIG[Orn]VLSGIL-NH2; N-terminus assumed)', 0.0),
  ('CC[C@H](C)[C@H](NC(=O)CNC(=O)[C@H](CO)NC(=O)[C@H](CC(C)C)NC(=O)[C@@H](NC(=O)[C@H](CN)NC(=O)CNC(=O)[C@@H](NC(=O)[C@H](CC(C)C)NC(=O)[C@@H]1CCCN1C(=O)[C@H](CC(C)C)NC(=O)[C@@H](N)Cc1ccccc1)[C@@H](C)CC)C(C)C)C(=O)N[C@@H](CC(C)C)C(N)=O [DTDap, FLPLIG-Dap-VLSGIL-NH2] (H-FLPLIG[Dap]VLSGIL-NH2; N-terminus assumed)', 0.0);

// next item, Inhibition zone, P. aeruginosa 3700 requested
input: Provide Inhibition zone, P. aeruginosa 3700, recorded with Pseudomonas aeruginosa NBIMCC 3700, of CC[C@H](C)[C@H](NC(=O)CNC(=O)[C@H](CO)NC(=O)[C@H](CC(C)C)NC(=O)[C@@H](NC(=O)[C@H](CCCNC(N)=O)NC(=O)CNC(=O)[C@@H](NC(=O)[C@H](CC(C)C)NC(=O)[C@@H]1CCCN1C(=O)[C@H](CC(C)C)NC(=O)[C@@H](N)Cc1ccccc1)[C@@H](C)CC)C(C)C)C(=O)N[C@@H](CC(C)C)C(N)=O [DTCit, FLPLIG-Cit-VLSGIL-NH2] (H-FLPLIG[Cit]VLSGIL-NH2; N-terminus assumed)
output: 0.0
